The origin of these recorded values is ChEMBL document CHEMBL4715760.

I'd appreciate it if you could supply inhibition values for the items below.
Target: Serine/threonine-protein kinase Nek1 (Homo sapiens)
Test: Inhibition of recombinant human GST-tagged NEK1 (1 to 505 residues) expressed in baculovirus expression system at 500 nM using Ser/Thr 07 as substrate incubated for 1 hr in presence of ATP at its Km concentration by Z'-LYTE assay relative to control
Give the quantity in %, number only.

Reported inhibition for Serine/threonine-protein kinase Nek1 (Homo sapiens), given CCOc1ccccc1-c1cc2c(N[C@H](CO)c3ccccc3)ncnc2[nH]1 ?
8

Reported inhibition for Serine/threonine-protein kinase Nek1 (Homo sapiens), given CN(C)CCNCc1ccc(-c2cc3c(N[C@H](CO)c4ccccc4)ncnc3[nH]2)cc1F ?
15

Reported inhibition for Serine/threonine-protein kinase Nek1 (Homo sapiens), given C#Cc1cccc(Nc2ncnc3cc(OCCOC)c(OCCOC)cc23)c1 [ERLOTINIB] ?
-8

Reported inhibition for Serine/threonine-protein kinase Nek1 (Homo sapiens), given COc1ccccc1-c1cc2c(N[C@H](CO)c3ccccc3)ncnc2[nH]1 ?
1

Reported inhibition for Serine/threonine-protein kinase Nek1 (Homo sapiens), given OCC[C@@H](Nc1ncnc2[nH]c(-c3ccccc3)cc12)c1ccccc1 ?
13

Reported inhibition for Serine/threonine-protein kinase Nek1 (Homo sapiens), given OC[C@@H](Nc1ncnc2[nH]c(-c3ccccc3)cc12)c1ccccc1 ?
0

----------
I'd appreciate it if you could supply inhibition values for the items below.
Biological target: Tyrosine-protein kinase Blk (Homo sapiens) (UniProt P51451)
Sequence (P51451 2-505 limits assumed): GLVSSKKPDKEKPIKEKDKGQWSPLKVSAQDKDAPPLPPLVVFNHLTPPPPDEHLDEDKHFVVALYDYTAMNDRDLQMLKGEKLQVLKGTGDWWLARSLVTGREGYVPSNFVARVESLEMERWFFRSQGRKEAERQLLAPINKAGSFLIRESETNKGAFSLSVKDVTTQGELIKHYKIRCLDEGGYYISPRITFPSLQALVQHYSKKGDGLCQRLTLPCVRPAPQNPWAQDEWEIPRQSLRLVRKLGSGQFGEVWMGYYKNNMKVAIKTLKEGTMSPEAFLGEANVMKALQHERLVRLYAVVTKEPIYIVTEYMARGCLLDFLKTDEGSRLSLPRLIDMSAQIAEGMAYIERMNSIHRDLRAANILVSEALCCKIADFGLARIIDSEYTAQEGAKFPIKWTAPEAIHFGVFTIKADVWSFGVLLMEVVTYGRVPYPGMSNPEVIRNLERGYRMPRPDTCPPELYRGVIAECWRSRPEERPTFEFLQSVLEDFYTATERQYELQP
Experiment: Inhibition of recombinant human His-tagged full length BLK expressed in baculovirus expression system at 500 nM using Tyr 01 peptide as substrate incubated for 1 hr in presence of ATP at its Km concentration by Z'-LYTE assay relative to control
Give the quantity in %, number only.

Form field: reported inhibition of OC[C@@H](Nc1ncnc2[nH]c(-c3ccccc3)cc12)c1ccccc1
33

Form field: reported inhibition of C#Cc1cccc(Nc2ncnc3cc(OCCOC)c(OCCOC)cc23)c1 [ERLOTINIB]
38

Form field: reported inhibition of OCC[C@@H](Nc1ncnc2[nH]c(-c3ccccc3)cc12)c1ccccc1
17

Form field: reported inhibition of CN(C)CCNCc1ccc(-c2cc3c(N[C@H](CO)c4ccccc4)ncnc3[nH]2)cc1F
22

Form field: reported inhibition of CCOc1ccccc1-c1cc2c(N[C@H](CO)c3ccccc3)ncnc2[nH]1
14

Form field: reported inhibition of COc1ccccc1-c1cc2c(N[C@H](CO)c3ccccc3)ncnc2[nH]1
29

----------
I'd appreciate it if you could supply inhibition values for the items below.
Molecular target: Protein kinase C alpha type (Homo sapiens)
Test: Inhibition of human full length GST-tagged PRKCA expressed in insect cells at 500 nM using Ser/Thr 07 as substrate incubated for 1 hr in presence of ATP at its Km concentration by Z'-LYTE assay relative to control
Give the quantity in %, number only.

Reported inhibition for Protein kinase C alpha type (Homo sapiens), given COc1ccccc1-c1cc2c(N[C@H](CO)c3ccccc3)ncnc2[nH]1 ?
15

Reported inhibition for Protein kinase C alpha type (Homo sapiens), given OCC[C@@H](Nc1ncnc2[nH]c(-c3ccccc3)cc12)c1ccccc1 ?
-9

Reported inhibition for Protein kinase C alpha type (Homo sapiens), given CCOc1ccccc1-c1cc2c(N[C@H](CO)c3ccccc3)ncnc2[nH]1 ?
1

Reported inhibition for Protein kinase C alpha type (Homo sapiens), given OC[C@@H](Nc1ncnc2[nH]c(-c3ccccc3)cc12)c1ccccc1 ?
17
